Tested on: CopR2 (Pseudomonas putida KT2440), ORF:6041cc23
Sequence: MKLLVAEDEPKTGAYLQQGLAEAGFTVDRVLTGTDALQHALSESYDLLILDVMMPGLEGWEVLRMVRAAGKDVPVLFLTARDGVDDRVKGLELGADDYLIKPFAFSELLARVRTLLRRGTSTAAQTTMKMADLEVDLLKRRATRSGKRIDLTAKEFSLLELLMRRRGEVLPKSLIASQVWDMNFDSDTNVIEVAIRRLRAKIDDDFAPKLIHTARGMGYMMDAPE
Assay: EMSA
Details: EMSA: 20 nM probe, 10 mM Tris-HCl pH 7.5, 50 mM KCl, 10 mM MgCl2, 5% glycerol, 20 min at 4 C, 5% native PAGE in TGE pH 8.3; footprinting: same binding system …
property_label: binding

{"seq_string": "CTTTGACAAACGTACGGCGGGAGGGGTTGCGCAACATGGCGAGGCCTCATGCGGAATAGCCACGATGTTCGCTGCCGCCTGCTGTCAGGTAGCTGAGGTGCACATTACAGTGTTGTCAGCTTGCTGCTTCGTCGATGCGCAGGTCGCGCATCAGCAGGCCGTAGTCGAGGGCAACCTGTTCCGGGATCGGCAGATACACCACATGGCCATCGCCCGGTGCGACCTCGATGGCGTGCTGCTACTGGCCGTCGTTTTACA (double strand) [copA1 (copAB1) promoter probe]", "property_label": "binding", "test_result": "binds"}
{"seq_string": "TGTAAAACGACGGCCAGTAGCCAGAGCCATAAACACGGGCAGCATGAGAACTGCTGATCCGAGCTTACAGAAATGTAATCACTCGGGAATCTTTTATGTGGCAGTTTCAAATCGCTTTCTCCCACTGTGACTTGCGCTTTCGAGCAAGTCCCTAAGACTTGTGGGATCCCCAAGGAAGCCGGGCCTGCGATCGAGCGGCCCGGATATCAGCGAATTATCTGACTGACTGGACACTACGGCATGCAAAGCAAAACCACGAGACGATCTTTCGTCAAAGGCCTGGC (double strand) [copA2 (copAB2) promoter probe]", "property_label": "binding", "test_result": "binds"}
{"seq_string": "TGTAAAACGACGGCCAGTGGGTGGCGGTAATGAACAGGTGTTTCATGATGACTCCGGGAATACACAGCAGGATGAGGCCACATTAGCCGGGGGCGACTGGCAGCTACCTGACAGGCACATTACAACTTTGTCAGCTTGGGCGAGCGGGCACATCGTCACGTATCATTTCAGCCATCCCATTGCCCCTGTGCTAGCGGTAAGGCGGCGCCATAGGCTACGCACAATCTTTCAGAATATGGACAGCGCATGAAACTGCTGATCGTCGAAGACCAGGC (double strand) [copR1 (copRS1) promoter probe]", "property_label": "binding", "test_result": "binds"}

---

System: CopR2 (Pseudomonas putida KT2440), ORF:6041cc23
Sequence: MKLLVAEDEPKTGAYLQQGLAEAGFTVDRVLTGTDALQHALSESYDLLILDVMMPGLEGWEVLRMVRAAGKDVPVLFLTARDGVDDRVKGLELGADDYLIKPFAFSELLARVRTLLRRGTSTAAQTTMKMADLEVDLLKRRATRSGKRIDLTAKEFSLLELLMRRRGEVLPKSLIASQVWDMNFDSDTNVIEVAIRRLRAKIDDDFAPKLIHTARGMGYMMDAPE
Test: EMSA
Conditions: EMSA: 20 nM probe, 10 mM Tris-HCl pH 7.5, 50 mM KCl, 10 mM MgCl2, 5% glycerol, 20 min at 4 C, 5% native PAGE in TGE pH 8.3; footprinting: same binding system …

{"seq_string": "TCGGTTCATCCTCAGCTACGAGTAGTTTCATGTGCTCAGCTTCCAAAGGTGTACACATCCAGTGTGCAGCAAAAAAAGGAGCTAACCAGAAGCTGACGTAAAAGTAATGTTGGTATCAGCCAGCTGTCAGGGCCTGCCGTCTACGGTCATTGAAGACGGGCATTGCAGTCACGCCTGCCGTTATCGGTAGCAATGGTTTCAACCCCCTGATGGAGAGAGTCCCATGAAATCGATCAGACTTTTGCTTGTGGCTACATCGATGCTGCTGACTGGCCGTCGTTTTACA (double strand) [copR2 (copRS2) promoter probe]", "binding": "binds"}

---

Test system: CopR1 (Pseudomonas putida KT2440), ORF:c26c307e
Sequence: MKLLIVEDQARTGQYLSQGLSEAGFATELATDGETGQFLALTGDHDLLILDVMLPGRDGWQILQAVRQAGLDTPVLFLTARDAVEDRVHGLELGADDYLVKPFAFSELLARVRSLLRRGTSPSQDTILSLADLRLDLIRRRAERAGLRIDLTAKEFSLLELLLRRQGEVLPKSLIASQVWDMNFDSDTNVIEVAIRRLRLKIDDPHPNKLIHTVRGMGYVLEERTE
Assay: EMSA
Settings: EMSA: 20 nM probe, 10 mM Tris-HCl pH 7.5, 50 mM KCl, 10 mM MgCl2, 5% glycerol, 20 min at 4 C, 5% native PAGE in TGE pH 8.3; footprinting: same binding system …
property_label: binding

{"seq_string": "TCGGTTCATCCTCAGCTACGAGTAGTTTCATGTGCTCAGCTTCCAAAGGTGTACACATCCAGTGTGCAGCAAAAAAAGGAGCTAACCAGAAGCTGACGTAAAAGTAATGTTGGTATCAGCCAGCTGTCAGGGCCTGCCGTCTACGGTCATTGAAGACGGGCATTGCAGTCACGCCTGCCGTTATCGGTAGCAATGGTTTCAACCCCCTGATGGAGAGAGTCCCATGAAATCGATCAGACTTTTGCTTGTGGCTACATCGATGCTGCTGACTGGCCGTCGTTTTACA (double strand) [copR2 (copRS2) promoter probe]", "test_result": "binds"}
